- System: CAPAN-1 (a BRCA-2-mutated pancreatic cancer cell line)
- testMethodNotes: Cell proliferation assay, three-day, CellTiter-Glo, CAPAN-1
- Format: cell-based
- measurementContext: Homo sapiens; CAPAN-1, Conc. 0.14 uM, replicate 1; read-out: Inh % 1
- Method: A three-day assay was conducted. A cell suspension was prepared. Cell density was counted by an automated cell counter and then diluted to the required density, according to seeding density. 50 μL cells were seeded into 384-well plate in growth medium according to the plate map. The cells were incubated at 37 °C, 5% CO2 overnight. […] The assay plate was equilibrated to room temperature prior to measurement. […] Luminescence was recorded on the Envision system.
Would you mind telling me the reported inhibition at […] of each entry?
API: value field is a number in %; no unit string.

Need inhibition at […], item NCCN1CCC(c2nc3c(C(N)=O)cccc3[nH]2)C1 (stereo not shown)
0.182

Need inhibition at […], item C[C@]1(c2nc3c(C(N)=O)cccc3[nH]2)CCCN1 [pc1, Veliparib, reference compound]
9.5

Need inhibition at […], item NC(=O)c1cccc2[nH]c(C3CCN(CCC(=O)c4ccccc4)C3)nc12 (stereo not shown)
4.9

Need inhibition at […], item O=C(c1cc(Cc2n[nH]c(=O)c3ccccc23)ccc1F)N1CCN(C(=O)C2CC2)CC1 [pc2, Olaparib, reference compound]
0.107

Need inhibition at […], item NC(=O)c1cccc2[nH]c(C3CCN(CCNC(=O)c4ccccc4)C3)nc12 (stereo not shown)
5.7

Need inhibition at […], item NCCCN1CCC(c2nc3c(C(N)=O)cccc3[nH]2)C1 (stereo not shown)
4.7

Need inhibition at […], item NC(=O)c1cccc2[nH]c(C3CCN(CCCNC(=O)c4ccccc4)C3)nc12 (stereo not shown)
4.6

Every entry's value here was drawn from paper PMC6572064.
